B1: SEC22B (parent)
chain: AKQLFRKLNEQSPTRCTLEAGAMT

- Variants of: B1
- TEST_DESCRIPTION: protein stability index of a GFP-peptide fusion (GPS, HEK-293T) (PSI 1-6); higher = more stable;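 also: lentivirally expressed fusions sorted by FACS into six bins by GFP to DsRed ratio, PSI derived from sequencing read proportions per bin multiplied by bin number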
- DETAILS: c terminus: a fixed tail appended
What protein stability index was measured for each of the following?
One number for each entry.

Example cases with answers are listed next.
- C16G: 3.93
- A1R: 2.23
- T24N: 1.98

Hey, can you go through the list below and give me protein stability index for every item?
1. M23S
2. T14E
3. E10C
4. S12Y
5. Q11N
6. P13F
7. L18Y

a:
1. 2.7
2. 3.53
3. 1.41
4. 2.43
5. 2.22
6. 1.77
7. 1.89

Please look at the items below and tell me protein stability index for each one, in order.
1. A20V
2. E10V

a:
2.49
1.81

Okay, here is my list. What is protein stability index for each of these?
1. T17F
2. T14M
3. A1N
4. A20E

a:
1.6
1.79
2.22
3.22

The reported numbers originate from the supplement of paper PMC10567573.
